Biological target: IL-1RtI (Homo sapiens, UniProt P14778)
Construct: made in house; host or cells: recombinant host cells (one form soluble from baculovirus transformed host cells; another PIG-tailed and cleaved from the cell surface)
Sequence (P14778 18-336): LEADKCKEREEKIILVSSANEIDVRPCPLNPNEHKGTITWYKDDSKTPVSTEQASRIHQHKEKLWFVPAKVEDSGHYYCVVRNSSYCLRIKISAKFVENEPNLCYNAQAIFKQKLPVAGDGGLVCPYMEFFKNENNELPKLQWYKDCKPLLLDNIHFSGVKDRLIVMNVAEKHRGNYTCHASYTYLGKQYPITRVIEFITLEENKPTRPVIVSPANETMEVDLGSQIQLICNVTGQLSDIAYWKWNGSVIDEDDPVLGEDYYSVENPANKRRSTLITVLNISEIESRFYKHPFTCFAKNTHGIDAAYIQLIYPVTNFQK
Assay: Inhibition of 125I-IL-1α binding to IL-1RtI (Example 3)
Settings: inhibition of 125I-IL-1α binding to IL-1RtI; soluble peptide unless marked *
Where a SMILES comes first, the peptide text is derived from it. [ ]: non-standard residue; d: D form. Bpa = N[C@@H](Cc1ccc(C(=O)c2ccccc2)cc1)C(=O)O; Aze = O=C(O)[C@@H]1CCN1; Sar = CNCC(=O)O
Catalogue of IC50 values

Below: 4 compounds and their reported IC50.
compound	IC50
C[C@@H](O)[C@H](NC(=O)[C@H](Cc1c[nH]c2ccccc12)NC(=O)[C@H](CCC(=O)O)NC(=O)[C@@H](N)Cc1ccccc1)C(=O)N1CCC[C@H]1C(=O)N(C)CC(=O)N[C@@H](Cc1c[nH]c2ccccc12)C(=O)N[C@@H](Cc1ccc(O)cc1)C(=O)N[C@@H](CCC(N)=O)C(=O)N1CC[C@H]1C(=O)N[C@@H](Cc1ccc(O)cc1)C(N)=O [FEWTPSarWYQJY--NH2] (H-FEWTP[Sar]WYQ[Aze]Y-NH2)	≤ 500 nM
C[C@@H](O)[C@H](NC(=O)[C@H](Cc1c[nH]c2ccccc12)NC(=O)[C@H](CCC(=O)O)NC(=O)[C@@H](N)Cc1ccccc1)C(=O)N1CCC[C@H]1C(=O)N[C@@H](CC(N)=O)C(=O)N[C@@H](Cc1ccc(O)cc1)C(=O)N[C@@H](Cc1c[nH]c2ccccc12)C(=O)N[C@@H](CCC(N)=O)C(=O)N1CC[C@H]1C(=O)N[C@@H](Cc1ccc(O)cc1)C(N)=O [FEWTPNYWQJY--NH2] (H-FEWTPNYWQ[Aze]Y-NH2)	≤ 500 nM
CC(=O)N[C@@H](Cc1ccccc1)C(=O)N[C@@H](CCC(=O)O)C(=O)N[C@@H](Cc1c[nH]c2ccccc12)C(=O)N[C@H](C(=O)N1CCC[C@H]1C(=O)NCC(=O)N[C@@H](Cc1ccc(C(=O)c2ccccc2)cc1)C(=O)N[C@@H](Cc1ccc(O)cc1)C(=O)N[C@@H](CCC(N)=O)C(=O)N1CC[C@H]1C(=O)N[C@@H](Cc1ccc(O)cc1)C(N)=O)[C@@H](C)O [AcFEWTPG--Bpa--YQJY--NH2] (Ac-FEWTPG[Bpa]YQ[Aze]Y-NH2)	≤ 500 nM
C[C@H](NC(=O)[C@H](Cc1c[nH]c2ccccc12)NC(=O)[C@H](Cc1ccc(O)cc1)NC(=O)CNC(=O)[C@@H]1CCCN1C(=O)[C@@H](NC(=O)[C@H](Cc1c[nH]c2ccccc12)NC(=O)[C@H](CCC(=O)O)NC(=O)[C@@H](N)Cc1ccccc1)[C@@H](C)O)C(=O)N1CC[C@H]1C(=O)N[C@@H](Cc1ccc(O)cc1)C(N)=O [FEWTPGYWAJY--NH2] (H-FEWTPGYWA[Aze]Y-NH2)	> 100000 nM

# evaluate next
Task: # query: IC50 of entry C[C@H](NC(=O)CNC(=O)[C@@H]1CCCN1C(=O)[C@@H](NC(=O)[C@H](Cc1c[nH]c2ccccc12)NC(=O)[C@H](CCC(=O)O)NC(=O)[C@@H](N)Cc1ccccc1)[C@@H](C)O)C(=O)N[C@@H](Cc1c[nH]c2ccccc12)C(=O)N[C@@H](CCC(N)=O)C(=O)N1CC[C@H]1C(=O)N[C@@H](Cc1ccc(O)cc1)C(N)=O [FEWTPGAWQJY--NH2] (H-FEWTPGAWQ[Aze]Y-NH2)
Result: 500 nM
